# Tested on: C. parvum sporozoites
# measurement protocol: SCFA treatment of live sporozoites before inoculation onto HCT-8 cells
# Assay type: cell-based, Cryptosporidium parvum
# reported conditions: 45 min incubation with sporozoites prior to infection of host cell monolayers
recorded endpoint: inhibition of sporozoites

[[record]]
compound = "CC(=O)O [Acetate]"
reported_value = "no inhibition"

[[record]]
compound = "CCC(=O)O [Propionate]"
reported_value = "no inhibition"

[[record]]
compound = "CCCC(CCC)C(=O)O [Valproate, reference compound]"
reported_value = "no inhibition"


###

# System: HCT-8 cells
# measurement protocol: Compound toxicity for host cell cultures (CellTiter 96 tetrazolium assay)
# Assay type: cell-based, human
# reported conditions: HDAC inhibitors; 48 h; read-out: Cytotoxicity Concentration (CC50) for HCT-8 Host Cells
recorded endpoint: CC50

Task: Which measured CC50 value corresponds to CC(/C=C/C(=O)NO)=C\[C@@H](C)C(=O)c1ccc(N(C)C)cc1 ?
Output: > 200 µM
